Entries and their measured z-score of subpopulation abundance follow.
Test system: Saccharomyces cerevisiae BY4741 SeMeCo community
Assay: z-score of subpopulation abundance vs DMSO median, subpopulation auxotrophic for U; higher = larger share of this subpopulation than in DMSO controls
Conditions: 10 µM; 24 h; SM minimal medium; subpopulation (auxotrophy): U
Where a name gives a salt, the structure may show the parent alone.
REPORTED_METRIC: z-score of subpopulation abundance

[[record]]
compound = "CC[C@H]1CN2CC[C@]3(C(=O)Nc4ccccc43)[C@@H]2C[C@@H]1/C(=C\\OC)C(=O)OC"
endpoint_value = 0.63

[[record]]
compound = "CC[N+](C)(CC)CCOC(=O)C(O)(c1ccccc1)c1ccccc1 [Methylbenactyzine Bromide]"
endpoint_value = -0.09

[[record]]
compound = "CCOC(=O)Nc1ccc(NCc2ccc(F)cc2)cc1N"
endpoint_value = -0.91

[[record]]
compound = "Cc1cc(C(C#N)c2ccc(Cl)cc2)c(Cl)cc1NC(=O)c1cc(I)cc(I)c1O (stereo not given)"
endpoint_value = -0.26

[[record]]
compound = "CCN(CC)CCOC(=O)C(O)(c1ccccc1)c1ccccc1 [Benactyzine hydrochloride]"
endpoint_value = 1.08

[[record]]
compound = "COc1ccc2[nH]cc(CCN)c2c1"
endpoint_value = 1.12

[[record]]
compound = "O=[N+]([O-])C(Br)(CO)CO"
endpoint_value = 1.02

[[record]]
compound = "COc1ccc(C=O)cc1"
endpoint_value = -0.66

[[record]]
compound = "CNC1CC(N)C(O)C(OC2OC(CO)C(O)C3OC4(OC(C(N)CO)C(O)C(O)C4O)OC23)C1O (stereo not given)"
endpoint_value = 0.58

[[record]]
compound = "CC[C@@]1(O)C(=O)OCc2c1cc1n(c2=O)Cc2cc3ccccc3nc2-1"
endpoint_value = -0.45


* * *

Recorded z-score of subpopulation abundance by entry
System: Saccharomyces cerevisiae BY4741 SeMeCo community
Assay: z-score of subpopulation abundance vs DMSO median, subpopulation auxotrophic for LU; higher = larger share of this subpopulation than in DMSO controls
Conditions: 10 µM; 24 h; SM minimal medium; subpopulation (auxotrophy): LU
REPORTED_METRIC: z-score of subpopulation abundance

[[record]]
molecule = "CN(C)C(=O)Oc1cccc([N+](C)(C)C)c1 [Neostigmine Bromide]"
reported_metric = "z-score of subpopulation abundance"
endpoint_value = 0.79

[[record]]
molecule = "CCC1=C[C@H]2CN3CCc4c([nH]c5ccccc45)[C@](C(=O)OC)(C2)[C@H]13 [Catharanthine]"
reported_metric = "z-score of subpopulation abundance"
endpoint_value = -0.64

[[record]]
molecule = "CC(C)(O)C(Cl)(Cl)Cl [Chlorobutanol]"
reported_metric = "z-score of subpopulation abundance"
endpoint_value = 0.52


* * *

Form field: z-score of subpopulation abundance (one value per entry).
Test system: Saccharomyces cerevisiae BY4741 SeMeCo community
Experiment: z-score of subpopulation abundance vs DMSO median, subpopulation auxotrophic for HU; higher = larger share of this subpopulation than in DMSO controls
Conditions: 10 µM; 24 h; SM minimal medium; subpopulation (auxotrophy): HU
Counter-ions that a name gives are not always drawn.
REPORTED_METRIC: z-score of subpopulation abundance

[[record]]
compound = "COc1ccc2c(c1)[C@]13CCCC[C@@H]1[C@H](C2)N(C)CC3 [Dextromethorphan hydrobromide hydrate]"
reported_metric = "z-score of subpopulation abundance"
endpoint_value = -0.61

[[record]]
compound = "C[N+]1(C)[C@@H]2C[C@@H](OC(=O)[C@H](CO)c3ccccc3)C[C@H]1[C@@H]1O[C@@H]12"
reported_metric = "z-score of subpopulation abundance"
endpoint_value = 0.7

[[record]]
compound = "CCC1=C[C@H]2CN3CCc4c([nH]c5ccccc45)[C@](C(=O)OC)(C2)[C@H]13"
reported_metric = "z-score of subpopulation abundance"
endpoint_value = -0.39

[[record]]
compound = "N#Cc1nn(-c2c(Cl)cc(C(F)(F)F)cc2Cl)c(N)c1[S+]([O-])C(F)(F)F (stereo unspecified)"
reported_metric = "z-score of subpopulation abundance"
endpoint_value = -0.37

[[record]]
compound = "CN(C)C(=O)Oc1ccc[n+](C)c1 [Pyridostigmine Bromide]"
reported_metric = "z-score of subpopulation abundance"
endpoint_value = 0.63

[[record]]
compound = "Oc1cc(Cl)ccc1Oc1ccc(Cl)cc1Cl"
reported_metric = "z-score of subpopulation abundance"
endpoint_value = 0.43

[[record]]
compound = "CN(C)[C@@H]1C(=O)C(C(N)=O)=C(O)[C@@]2(O)C(=O)C3=C(O)c4c(O)cccc4[C@@](C)(O)[C@H]3[C@H](O)[C@@H]12 [Oxytetracycline Dihydrate]"
reported_metric = "z-score of subpopulation abundance"
endpoint_value = -0.06

[[record]]
compound = "Nc1ccncc1"
reported_metric = "z-score of subpopulation abundance"
endpoint_value = 0.52

[[record]]
compound = "C[N+](C)(C)CCCCCCCCCC[N+](C)(C)C [Decamethonium Bromide]"
reported_metric = "z-score of subpopulation abundance"
endpoint_value = -0.06

[[record]]
compound = "CN(C)[C@@H]1C(=O)C(C(N)=O)=C(O)[C@@]2(O)C(=O)C3=C(O)c4c(O)ccc(Cl)c4[C@@](C)(O)[C@H]3C[C@@H]12 [Chlortetracycline HCl]"
reported_metric = "z-score of subpopulation abundance"
endpoint_value = -0.42

[[record]]
compound = "Cn1cc(C2=C(c3cn(C4CCN(Cc5ccccn5)CC4)c4ccccc34)C(=O)NC2=O)c2ccccc21"
reported_metric = "z-score of subpopulation abundance"
endpoint_value = -0.2

